Ratio EC50 by entry:
Organism: Homo sapiens
Experiment description: Ratio of EC50 for human cloned beta-1 adrenergic receptor to EC50 for human cloned beta3 adrenergic receptor

Q: Given the entry O=C(O)COc1ccc(-c2ccc3c(c2)C[C@@H](NC[C@H](O)c2cccc(Cl)c2)CC3)cc1 , report its measured Ratio EC50.
Result: > 170

We next turn to a different compound, shown below.
Q: Using the record for COc1ccc(Oc2ccc3c(c2)C[C@@H](NC[C@H](O)c2ccc(Cl)nc2)CC3)cc1C(=O)O , report its Ratio EC50.
Result: > 277

###

Assay target: Beta-3 adrenergic receptor (Homo sapiens)
Sequence (P13945 whole entry): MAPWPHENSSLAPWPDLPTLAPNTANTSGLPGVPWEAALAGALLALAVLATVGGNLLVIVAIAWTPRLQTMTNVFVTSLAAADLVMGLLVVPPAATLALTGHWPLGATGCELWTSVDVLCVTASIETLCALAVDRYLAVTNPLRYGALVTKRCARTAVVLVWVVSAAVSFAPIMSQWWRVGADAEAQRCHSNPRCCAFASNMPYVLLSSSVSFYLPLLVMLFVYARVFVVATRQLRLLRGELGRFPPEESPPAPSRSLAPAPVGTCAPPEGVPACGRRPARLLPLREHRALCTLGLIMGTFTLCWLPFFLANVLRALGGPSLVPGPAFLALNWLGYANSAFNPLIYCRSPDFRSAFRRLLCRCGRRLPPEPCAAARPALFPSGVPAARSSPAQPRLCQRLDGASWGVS
Experiment description: Agonist activity at human cloned beta3 adrenergic receptor expressed in CHO cells assessed as cAMP accumulation
Reported endpoint: pEC50
Formally, pEC50 is defined as -log10 of the concentration c, with c in mol/L.

Q: API: value(readout= pEC50, system= Beta-3 adrenergic receptor (Homo sapiens), query= N#Cc1ccc([C@@H](O)CN[C@H]2CCc3ccc(-c4ccc(C(=O)O)cc4)cc3C2)cc1 )
Result: 7.55

Q: API: value(readout=pEC50, system=Beta-3 adrenergic receptor (Homo sapiens)) for record O=C(O)COc1ccc(-c2ccc3c(c2)C[C@@H](NC[C@H](O)c2cccc(Cl)c2)CC3)cc1
Result: 8.24

Q: Hi! What's the reported pEC50 for Nc1cc(Oc2ccc3c(c2)C[C@@H](NC[C@H](O)c2cccc(Cl)c2)CC3)cc(C(=O)O)c1 on Beta-3 adrenergic receptor (Homo sapiens)?
Result: 8.49

Q: Missing value: pEC50, Beta-3 adrenergic receptor (Homo sapiens), entry O=C(O)c1cccnc1Oc1ccc2c(c1)C[C@@H](NC[C@H](O)c1cccc(Cl)c1)CC2 . Fill in?
Result: 7.31

---
Q: Please state recorded pEC50 (tested on Beta-3 adrenergic receptor (Homo sapiens)) of O=C(O)c1ccc(-c2ccc3c(c2)C[C@@H](NC[C@H](O)c2cccc(Cl)c2)CC3)cc1
Result: 8.55

Q: Provide the documented pEC50 with Beta-3 adrenergic receptor (Homo sapiens) as the system for O=C(O)c1ccc(-c2ccc3c(c2)C[C@@H](NC[C@H](O)c2ccccc2Cl)CC3)cc1
Result: 7.42

Q: So what pEC50 did CN(C)c1cc(Oc2ccc3c(c2)C[C@@H](NC[C@H](O)c2ccc(Cl)nc2)CC3)cc(C(=O)O)c1 get with Beta-3 adrenergic receptor (Homo sapiens)?
Result: 8.74

Q: # returns recorded pEC50 (system: Beta-3 adrenergic receptor (Homo sapiens)) for CC(C)Oc1cc(-c2ccc3c(c2)C[C@@H](NC[C@H](O)c2ccc(Cl)cc2)CC3)ccc1C(=O)O
Result: 9.15

Q: Form entry - test system: Beta-3 adrenergic receptor (Homo sapiens); read-out: pEC50; molecule: COc1cc(-c2ccc3c(c2)C[C@@H](NC[C@H](O)c2ccc(Cl)cc2)CC3)ccc1C(=O)O
Result: 9.11

Q: Give the reported pEC50 for O=C(O)c1ccc(-c2ccc3c(c2)C[C@@H](NC[C@H](O)c2ccc(Cl)c(Cl)c2)CC3)cc1 (system: Beta-3 adrenergic receptor (Homo sapiens)).
Result: 7.48

###

Reported pEC50 values for a set of molecules
Assay target: UniProtKB P08588
pEC50: −log10 of the molar value.

Q: # value lookup — system UniProtKB P08588, readout pEC50, item COc1ccc(Oc2ccc3c(c2)C[C@@H](NC[C@H](O)c2ccc(Cl)nc2)CC3)cc1C(=O)O
Result: < 6.00

Q: Param readout= pEC50; system= UniProtKB P08588; entry= O=C(O)COc1cccc(Oc2ccc3c(c2)C[C@@H](NC[C@H](O)c2cccc(Cl)c2)CC3)c1 ; returns value.
Result: < 7.00

Q: Find the measured pEC50: item O=C(O)c1cccc(-c2ccc3c(c2)C[C@@H](NC[C@H](O)c2cccc(Cl)c2)CC3)c1 , target or system UniProtKB P08588.
Result: < 7.00

Attention now turns to another entry.
Q: Please provide the recorded pEC50 for O=C(O)COc1ccc(-c2ccc3c(c2)C[C@@H](NC[C@H](O)c2cccc(Cl)c2)CC3)cc1 , tested on UniProtKB P08588.
Result: < 6.00

###

Below, each of the compounds is paired with its reported Ratio EC50 value.
Species on record: Homo sapiens
Experiment description: Ratio of EC50 for human cloned beta-1 adrenergic receptor to EC50 for human cloned beta3 adrenergic receptor

Would you please look over these solved cases?
Q: May I ask what Ratio EC50 has been recorded for O=C(O)c1ccc(-c2ccc3c(c2)C[C@@H](NC[C@H](O)c2ccc(Cl)nc2)CC3)cc1 ?
Result: > 1260

Q: Bench note: what Ratio EC50 did N#Cc1ccc([C@@H](O)CN[C@H]2CCc3ccc(-c4ccc(C(=O)O)cc4)cc3C2)cc1 show?
Result: > 36

Q: Report Ratio EC50 for O=C(O)COc1cccc(Oc2ccc3c(c2)C[C@@H](NC[C@H](O)c2cccc(Cl)c2)CC3)c1 please.
Result: > 4.5

Q: Suppose we examine the compound Cc1ccc([C@@H](O)CN[C@H]2CCc3ccc(-c4ccc(C(=O)O)cc4)cc3C2)cc1 ; what Ratio EC50 value has been reported?
Result: > 1260

Q: Fill in the blank: the reported Ratio EC50 of COc1ccc(Oc2ccc3c(c2)C[C@@H](NC[C@H](O)c2cccc(Cl)c2)CC3)cc1C(=O)O is ____.
Result: > 166

Q: Entry O=C(O)c1ccc(-c2ccc3c(c2)C[C@@H](NC[C@H](O)c2ccc(Cl)c(Cl)c2)CC3)cc1 : reported Ratio EC50 = ?
Result: > 30

Q: Which value of Ratio EC50 has been reported for O=C(O)COc1ccc(Oc2ccc3c(c2)C[C@@H](NC[C@H](O)c2cccc(Cl)c2)CC3)cc1 in the records?
Result: > 4.2

Q: Any idea what Ratio EC50 was measured for O=C(O)c1ccc(-c2ccc3c(c2)C[C@@H](NC[C@H](O)c2cccc(Cl)c2)CC3)s1 ?
Result: > 417

Further cases:
Q: Query: Ratio EC50; subject: O=C(O)c1cccc(-c2ccc3c(c2)C[C@@H](NC[C@H](O)c2cccc(Cl)c2)CC3)c1
Result: > 3.4

Q: Recorded Ratio EC50 of O=C(O)c1ccc(-c2ccc3c(c2)C[C@@H](NC[C@H](O)c2cccc(Cl)c2)CC3)cc1 , please.
Result: > 357

###

Assay target: Beta-1 adrenergic receptor (Homo sapiens)
Sequence (P08588 whole entry): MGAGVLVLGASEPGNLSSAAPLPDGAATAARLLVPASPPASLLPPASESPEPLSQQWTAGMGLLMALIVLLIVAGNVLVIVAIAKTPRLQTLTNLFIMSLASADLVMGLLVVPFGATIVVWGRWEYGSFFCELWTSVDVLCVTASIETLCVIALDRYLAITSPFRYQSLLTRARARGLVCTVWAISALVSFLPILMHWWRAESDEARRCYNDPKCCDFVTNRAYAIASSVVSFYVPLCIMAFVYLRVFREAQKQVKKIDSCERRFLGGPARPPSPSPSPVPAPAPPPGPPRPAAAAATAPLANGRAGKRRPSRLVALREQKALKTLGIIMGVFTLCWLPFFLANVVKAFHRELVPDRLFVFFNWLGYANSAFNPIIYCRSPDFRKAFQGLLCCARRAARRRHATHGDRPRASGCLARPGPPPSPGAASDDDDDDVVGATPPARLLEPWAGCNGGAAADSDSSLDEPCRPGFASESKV
In this section, each of the molecules is paired with its reported EC50.
Kindly provide the numeric value in nM only, without the unit symbol.

Q: Param readout= EC50; system= Beta-1 adrenergic receptor (Homo sapiens); entry= Cc1cc(-c2ccc3c(c2)C[C@@H](NC[C@H](O)c2ccc(Cl)cc2)CC3)ccc1C(=O)O ; returns value.
Result: 825

Q: Please tell me: EC50 of O=C(O)c1cc(NC2CCCCC2)cc(Oc2ccc3c(c2)C[C@@H](NC[C@H](O)c2cccc(Cl)c2)CC3)c1 , system Beta-1 adrenergic receptor (Homo sapiens)?
Result: 69

Now for the molecule whose EC50 we want.
Q: Hello, I am looking for reported EC50 with Beta-1 adrenergic receptor (Homo sapiens) for O=C(O)c1ccc(-c2ccc3c(c2)C[C@@H](NC[C@H](O)c2ccc(C(F)(F)F)cc2)CC3)cc1 . Could you help?
Result: 775

###

Tested on: Canis familiaris
Experiment description: Ratio of Cmax for drug to Cmax for 3-[((7S)-7-{[(2R)-2-(3-Chlorophenyl)-2-hydroxyethyl]amino}-5,6,7,8-tetrahydro-2-naphthalenyl)oxy]benzoic acid hydrochloride in dog at 0.1 or 0.20 mg/kg, po by cassette dosing assay
Format: ADME, organism-based, Canis lupus familiaris
Parameters: dose 0.2 mg/kg, route oral
Particulars: in vivo, 0.2 mg/kg
The entries below come with measured Ratio values attached.
Respond using a number only.

Q: # Ratio lookup, item COc1ccc(Oc2ccc3c(c2)C[C@@H](NC[C@H](O)c2ccc(Cl)nc2)CC3)cc1C(=O)O
Result: 0.5

Q: Look up Ratio for this compound: CN(C)c1cc(Oc2ccc3c(c2)C[C@@H](NC[C@H](O)c2cccc(Cl)c2)CC3)cc(C(=O)O)c1
Result: 1.18

Q: Value lookup for Ratio; key = COc1ccc(Oc2ccc3c(c2)C[C@@H](NC[C@H](O)c2ccc(Cl)cc2)CC3)cc1C(=O)O
Result: 0.64

More entries:
Q: What Ratio value was documented for this compound, O=C(O)c1cccc(Oc2ccc3c(c2)C[C@@H](NC[C@H](O)c2cccc(Cl)c2)CC3)c1 ?
Result: 1

Q: Given the compound O=C(O)c1cc(NC2CCOCC2)cc(Oc2ccc3c(c2)C[C@@H](NC[C@H](O)c2cccc(Cl)c2)CC3)c1 , what is its reported Ratio?
Result: 0.06

###

Species on record: Homo sapiens
Experiment description: Ratio of EC50 for human cloned beta-1 adrenergic receptor to EC50 for human cloned beta3 adrenergic receptor
Simple rule here: Ratio EC50 less than 100 is yes, otherwise no.

Recorded results for 6 molecules are shown here.
Q: Below 100 on Ratio EC50? Entry CN(C)c1cc(Oc2ccc3c(c2)C[C@@H](NC[C@H](O)c2cccc(Cl)c2)CC3)cc(C(=O)O)c1
Result: no

Q: Lab note: confirm whether the reported Ratio EC50 for this molecule is below 100, equality not counting. molecule: O=C(O)c1cccc(Oc2ccc3c(c2)C[C@@H](NC[C@H](O)c2cccc(Cl)c2)CC3)c1
Result: no

Q: Quick check: does O=C(O)c1cc(NC2CCOCC2)cc(Oc2ccc3c(c2)C[C@@H](NC[C@H](O)c2cccc(Cl)c2)CC3)c1 have Ratio EC50 under 100?
Result: no

Q: Is Ratio EC50 of CCCNc1cc(Oc2ccc3c(c2)C[C@@H](NC[C@H](O)c2cccc(Cl)c2)CC3)cc(C(=O)O)c1 strictly below 100?
Result: no

Q: Determine whether this molecule shows Ratio EC50 lower than 100 (ties excluded): Cc1ccc(Oc2ccc3c(c2)C[C@@H](NC[C@H](O)c2cccc(Cl)c2)CC3)cc1C(=O)O
Result: no

Q: Determine whether this molecule shows Ratio EC50 lower than 100 (ties excluded): COc1cc(Oc2ccc3c(c2)C[C@@H](NC[C@H](O)c2cccc(Cl)c2)CC3)cc(C(=O)O)c1
Result: no

Continuing:
Q: Quick check: Ratio EC50 of O=C(O)c1ccc(-c2ccc3c(c2)C[C@@H](NC[C@H](O)c2ccccc2Cl)CC3)cc1 under 100?
Result: yes

Q: Determine whether this molecule shows Ratio EC50 lower than 100 (ties excluded): O=C(O)c1ccc(-c2ccc3c(c2)C[C@@H](NC[C@H](O)c2cccc(Cl)c2)CC3)nc1
Result: yes

Q: Hello, is Ratio EC50 of the following molecule strictly smaller than 100? O=C(O)c1ccc(-c2ccc3c(c2)C[C@@H](NC[C@H](O)c2ccc(Cl)cc2)CC3)cc1F
Result: no

Q: Does O=C(O)c1ccc(Oc2ccc3c(c2)C[C@@H](NC[C@H](O)c2cccc(Cl)c2)CC3)s1 have Ratio EC50 strictly under 100?
Result: no
